B1: ZER1 (parent)
chain: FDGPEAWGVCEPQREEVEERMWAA

# Variants of: B1
# protocol: protein stability index of a GFP-peptide fusion (GPS, HEK-293T) (PSI 1-6); higher = more stable;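 also: lentivirally expressed fusions sorted by FACS into six bins by GFP to DsRed ratio, PSI derived from sequencing read proportions per bin multiplied by bin number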
# run_conditions: c terminus: a fixed tail appended
assay_endpoint: protein stability index
Please reply with the number alone, leaving off any unit.

Please review the following examples before continuing.
- mutation_annotation: "E5K"
  recorded_number: 3.13
- mutation_annotation: "A6K"
  recorded_number: 3.02
- mutation_annotation: "M21K"
  recorded_number: 2.76
- mutation_annotation: "P12E"
  recorded_number: 3.17
- mutation_annotation: "W7R"
  recorded_number: 3.97

Exam item: Query: protein stability index; subject: `P4M`
Marked response: 3.65

Exam item: Query: protein stability index; subject: `V9W`
Marked response: 3.22

Exam item: Query: protein stability index; subject: `E15C`
Marked response: 3.02

Exam item: Query: protein stability index; subject: `E11Q`
Marked response: 1.9

Exam item: Query: protein stability index; subject: `A24P`
Marked response: 3.05

Exam item: Query: protein stability index; subject: `E19G`
Marked response: 2.15

Exam item: Query: protein stability index; subject: `Q13K`
Marked response: 2.91

Exam item: Query: protein stability index; subject: `M21V`
Marked response: 3.45

Exam item: Query: protein stability index; subject: `E18D`
Marked response: 2.68

Exam item: Query: protein stability index; subject: `E19V`
Marked response: 1.98

Exam item: Query: protein stability index; subject: `P4D`
Marked response: 3.89

Exam item: Query: protein stability index; subject: `E15K`
Marked response: 2.92

Reference source for all entries: the supplement of paper PMC10567573
